Value source: patent US20240043435A1

Listed here: items and their measured pIC50.
biological target: TYK2-JH2 (aa 575-869, in-house) protein (Homo sapiens); construct: TYK2-JH2 (aa 575-869, in-house) protein; made in house; test: TYK2-JH2 biochemical assay (HTRF probe displacement); assay type: binding; details: Biochemical assay; read-out: TYK2-JH2 IC50
Sequence (P29597 575-869): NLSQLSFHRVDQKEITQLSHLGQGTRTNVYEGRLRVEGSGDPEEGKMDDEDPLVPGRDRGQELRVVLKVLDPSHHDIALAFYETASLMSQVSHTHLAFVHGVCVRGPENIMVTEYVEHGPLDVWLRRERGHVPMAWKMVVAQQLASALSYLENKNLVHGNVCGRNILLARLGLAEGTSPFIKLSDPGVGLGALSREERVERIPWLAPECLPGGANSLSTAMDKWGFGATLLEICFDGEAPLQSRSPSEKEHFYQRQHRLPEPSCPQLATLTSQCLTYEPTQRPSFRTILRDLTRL
pIC50: −log10 of the molar value.

Compound	pIC50
CC(=O)Nc1cc(Nc2cc(C)cc(S(C)(=O)=O)n2)c(-c2ccc(C(F)(F)F)cn2)cn1 [Example F1]	10.34
COc1cc(Nc2cc(NC(C)=O)ncc2-c2ccc(C(F)(F)F)cn2)nc(S(C)(=O)=O)c1 [Example F20]	10.51
COCCOc1cc(Nc2cc(NC(C)=O)ncc2-c2ccc(COC)cn2)nc(S(C)(=O)=O)c1 [Example E5]	10.66
CC(=O)Nc1cc(Nc2cc(C(F)F)cc(S(C)(=O)=O)c2)c(-c2ccn(C)n2)cn1 [Example J32]	10.10
COCCOc1ccc(-c2cnc(NC(C)=O)cc2Nc2cc(OCCOC)cc(S(C)(=O)=O)n2)nc1 [Example D8]	10.44
CC(=O)Nc1cc(Nc2cccc(S(C)(=O)=O)n2)c(-c2cc(Cl)c(C(C)(C)O)cn2)cn1 [Example B17]	10.46
CO[C@H](C)COc1cc(Nc2cc(NC(C)=O)ncc2-c2ccn(C)n2)nc(S(C)(=O)=O)c1 [Example J14]	10.48
CCn1ccc(-c2cnc(NC(C)=O)cc2Nc2cc(OC)cc(S(C)(=O)=O)c2)n1 [Example M9]	10.46
CC(=O)Nc1cc(Nc2cccc(S(C)(=O)=O)c2)c(N2CCCC2=O)cn1 [Example A7]	6.17
CC(=O)Nc1cc(Nc2cccc(S(C)(=O)=O)c2)c(-c2ncn(C)n2)cn1 [Example A10]	8.62
CC(=O)Nc1cc(Nc2cc(OC(C)C)cc(S(C)(=O)=O)n2)c(-c2ccn(CCO)n2)cn1 [Example A14]	10.66
CC(=O)Nc1cc(Nc2cc(OC(C)C)cc(S(C)(=O)=O)n2)c(-c2ccc(N3C[C@@H](C)O[C@@H](C)C3)cn2)cn1 [Example C4]	10.47
COC1CN(c2cc(Nc3cc(NC(C)=O)ncc3-c3ccc(N4C[C@@H](C)O[C@@H](C)C4)cn3)nc(S(C)(=O)=O)c2)C1 [Example C25]	10.43
CC(=O)Nc1cc(Nc2cc(C)cc(S(C)(=O)=O)n2)c(-c2ccc3c(n2)OCC(C)(C)O3)cn1 [Example Q21]	10.43
CC(=O)Nc1cc(Nc2cc(C(F)F)cc(S(C)(=O)=O)n2)c(-c2ccn(C)n2)cn1 [Example J42]	10.30

----------
test system: pSTAT5/GM-CSF; experiment: pSTAT5/GM-CSF cellular assay (JAK2 selectivity); type: cell-based

Compound	IC50
CC(=O)Nc1cc(Nc2cc(C3COCCO3)cc(S(C)(=O)=O)n2)c(-c2ccc3c(n2)OCC(C)(C)O3)cn1 (racemic) [Example Q51]	> 10 µM
CC(=O)Nc1cc(Nc2cccc(S(C)(=O)=O)n2)c(-c2cc(C)n(C)n2)cn1	2.13 µM
COCc1cc(Nc2cc(NC(C)=O)ncc2-c2ccn(C)n2)cc(S(C)(=O)=O)c1	> 10 µM
CC(=O)Nc1cc(Nc2cc(OCCO)cc(S(C)(=O)=O)n2)c(-c2ccc(C(C)(C)O)cn2)cn1	> 10 µM
COCCOc1cc(Nc2cc(NC(C)=O)ncc2-c2ccn(C(C)C)n2)nc(S(C)(=O)=O)c1	2.18 µM
CC(=O)Nc1cc(Nc2cc(OC(C)C)cc(S(C)(=O)=O)c2)c(-c2ccc(C(C)(C)O)cn2)cn1	> 10 µM
CCn1ccc(-c2cnc(NC(C)=O)cc2Nc2cc(OC(C)C)cc(S(C)(=O)=O)n2)n1	> 10 µM
CC(=O)Nc1cc(Nc2cc(OCCO)cc(S(C)(=O)=O)n2)c(-c2ccccn2)cn1	> 10 µM
CC(=O)Nc1cc(Nc2cc(OC(C)C)cc(S(C)(=O)=O)n2)c(-c2ccn(C(C)C)n2)cn1	3.75 µM
COCC1CCN(c2cc(Nc3cc(NC(C)=O)ncc3-c3ccc4c(n3)OCC(C)(C)O4)nc(S(C)(=O)=O)c2)C1 (stereo not drawn)	2.35 µM
CC(=O)Nc1cc(Nc2cc(OC[C@@H](C)O)cc(S(C)(=O)=O)n2)c(-c2ccn(C)n2)cn1	> 10 µM
COc1cc(Nc2cc(NC(C)=O)ncc2-c2ccc(C(F)(F)F)cn2)nc(S(C)(=O)=O)c1	> 10 µM
CC(=O)Nc1cc(Nc2cc(OC(F)F)cc(S(C)(=O)=O)n2)c(-c2ccn(C)n2)cn1	> 10 µM
CC(=O)Nc1cc(Nc2cc(OCC(O)CO)cc(S(C)(=O)=O)n2)c(-c2ccn(C)n2)cn1 (stereo not drawn)	> 10 µM
COc1ccc(Nc2cc(NC(C)=O)ncc2-c2ccn(C)n2)nc1S(C)(=O)=O	> 10 µM
